system: OVCAR-3 ovarian; test: NCI-60 one-dose screen, 48 h (100 = growth as untreated, 0 = no growth, -100 = all killed); conditions: 10 µM unless noted
This is part of a sample that, as a whole, favours compounds with a hit. Of some 83,000 tested, about 20% had one in any assay.
growth under 60% gets 1 (yes), anything at or over 60% gets 0 (no).

Qu. Dear reviewer, please state whether COc1ccc(C2SCC(=O)Nc3c2c(C)nn3-c2nc3ccc(C)cc3s2)cc1O (centres undefined) has growth strictly beneath 60%.
Ans. 1 (yes)

Qu. Criterion: growth strictly below 60%. Is it met by "NC(=O)NC(=O)CI" ?
Ans. 0 (no)

Qu. Answer whether the molecule "c1cnc2c(c1)ccc1ncccc12" has growth strictly less than 60%
Ans. 0 (no)

Qu. Check if growth falls below 60% for N#C[Se]CCN1C(=O)C2C(C1=O)[C@H]1C=C[C@@H]2S1 (some centres undefined) .
Ans. 1 (yes)

Qu. Quick check: does O=C1NC(=O)C(CN2C(=O)C3(c4ccccc42)[C@H](Cl)C(=O)N3c2ccccc2)C(=O)N1 (some centres undefined) have growth under 60%?
Ans. 1 (yes)

Qu. Please indicate whether the reported growth of "O=C(CF)N(O)c1ccc(/C=C/c2ccccc2)cc1" is strictly below 60%.
Ans. 1 (yes)

Qu. Determine if "O=C(CCCN1CCC2(CC1)C(=O)NCN2c1ccc(F)cc1)c1ccc(F)cc1" shows growth strictly lower than 60%.
Ans. 0 (no)

Qu. Answer whether the molecule "CCOc1cc(/C=N\Nc2nnc(C)n2N)c(C)cc1N(CCCl)CCCl" has growth strictly less than 60%
Ans. 1 (yes)

Qu. Here's an entry: COc1ccc(C(=O)c2ccc([As]=O)cc2)cc1 (centres undefined) . Is its growth below 60%?
Ans. 1 (yes)

Qu. # check: growth < 60% for CC(=O)N1N=C(c2ccccc2)CC1c1sc(N(CCCl)CCCl)nc1Cl (centres undefined)
Ans. 0 (no)

Qu. Say whether its growth is strictly beneath 60%. Entry: [N-]=[N+]=NC(C(=O)O)c1ccccc1 (centres undefined)
Ans. 0 (no)

Qu. API: query returns whether the molecule falls strictly under 60% in growth. Query: "CO[C@@H]([CH2][Hg][S]C#N)[C@@H]([CH2][Hg][S]C#N)OC"
Ans. 1 (yes)

Qu. Problem: For the molecule "CC(=O)C1C(=O)N(C)C(=O)N(C)C1=O" , is growth under 60%?
Ans. 0 (no)

Qu. Bench note: check whether "Nc1c(Br)cc2c3c(cccc13)-c1ccccc1-2" shows growth below 60%
Ans. 0 (no)

Qu. Just wondering, is growth of "CC(=O)[O][Hg][c]1ccccc1" below 60%?
Ans. 1 (yes)

Qu. Is growth strictly under 60% for the entry "Nc1cccc(CC(=O)Nc2ccc(S(=O)(=O)F)cc2)c1" ?
Ans. 0 (no)

Qu. Bench note: check whether "CNC(=O)Oc1cccc(OC)c1" shows growth below 60%
Ans. 0 (no)

Qu. Decide: growth of O=CC(Br)C(Br)c1ccccc1 (centres undefined) strictly below 60%?
Ans. 1 (yes)

Qu. Below 60% on growth? Entry "CCCCOC(=O)c1ccccc1C(=O)O.CCCCOC(=O)c1ccccc1C(=O)O.[Cu+2]"
Ans. 0 (no)

Qu. Threshold test, growth < 60%: "[Br][Pb]([c]1ccccc1)([c]1ccccc1)[c]1ccccc1"
Ans. 1 (yes)

Qu. Does this molecule meet the criterion growth < 60%? CC(C)(C)NCC(O)c1ccccc1Cl (centres undefined)
Ans. 1 (yes)

Qu. Is it true that growth reported for Fc1ccc(C2=NN(c3ccccc3)C(c3sc(N(CCCl)CCCl)nc3Cl)C2)cc1 (centres undefined) is less than 60%?
Ans. 0 (no)

Qu. growth under 60%? Item: "C[CH2][Pb]([CH2]C)([CH2]C)[O]C(=O)COc1ccccc1"
Ans. 1 (yes)

Qu. Lab note: confirm whether the reported growth for this molecule is below 60%, equality not counting. molecule: O=C1C=CC(=O)C2C1C1(Cl)C(Cl)=C(Cl)C2(Cl)C1(Cl)Cl (centres undefined)
Ans. 1 (yes)
